Source listed as PubChem BioAssay.

- protocol_notes: small-molecule microarray binders of probe aDKK1, primary screen, biochemical, biotinylated probe, 635/667 nm fluorescence (AID 1099);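 also: score merges 667nm spot fluorescence with signal to noise across triplicate slides; reference of the scale not given here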
- details: higher = more signal
Rule: composite z-score under 0.4 gives no (0), otherwise yes (1).

[
  {
    "compound": "C=C(COC)/C(=C/C[C@@H](OC(=O)c1ccncc1)c1cccc(OCCO)c1)c1cnc2ccccc2c1",
    "qualitative_label": "yes (1)"
  },
  {
    "compound": "Cc1ccc(F)cc1S(=O)(=O)N[C@@H]1CCN(Cc2ccc(Oc3ccccc3)cc2)C1",
    "qualitative_label": "no (0)"
  },
  {
    "compound": "CC(C)C(O)C1C=CC2C(=O)N(C)C(=O)C2N1N(c1ccccc1)c1ccccc1 (configuration not stated)",
    "qualitative_label": "no (0)"
  },
  {
    "compound": "CCCNC(=O)[C@@]1(c2ccc([N+](=O)[O-])cc2)CC(=O)N(C2CCCCC2)[C@@H]1c1ccc(CO)cc1I",
    "qualitative_label": "yes (1)"
  },
  {
    "compound": "O=C1NC(=O)C2C1C=CC(C(O)c1ccc3c(c1)OCO3)N2Nc1ccccn1 (configuration not stated)",
    "qualitative_label": "no (0)"
  },
  {
    "compound": "C=CCOC(=O)[C@H]1[C@@H]2C(=O)O[C@@H](c3ccccc3)[C@@H](c3ccccc3)N2[C@@H](c2ccc(OCCOC(=O)[C@H]3C[C@H]4C(=O)N[C@@H](CCCC[N+](C)(C)C)C(=O)N4[C@H]3c3cccc(OCCO)c3)cc2)[C@]12C(=O)Nc1ccc(I)cc12",
    "qualitative_label": "no (0)"
  },
  {
    "compound": "COCCCNC(=O)[C@]1(Cc2ccccc2CN=[N+]=[N-])N=C(c2ccc(OCCCO)cc2)O[C@@H]1c1ccccc1",
    "qualitative_label": "no (0)"
  }
]
